Consider the following compounds; for each one, report its TGI.
tested on: COLO 205 colon; experiment: NCI tumour cell line growth inhibition, 48 h

As a guide, the following entries are already answered.
[[record]]
compound = "c1cc2c3c(c1)[C@@H]1O[C@@H]1c1cccc(c1-3)[C@@H]1O[C@H]21"
measured_value = "44.6 µM"

[[record]]
compound = "NC(=O)CC[C@H]1C(=O)N=C(N)N1C(=O)OCc1ccccc1"
measured_value = "> 100 µM"

[[record]]
compound = "CCCC(CC)c1cc(O)c(O)cc1C(CC)CCC (stereo not given)"
measured_value = "> 10 µM"

[[record]]
compound = "Cc1cccc(C(C)(C)C)c1NC(=O)C(=O)C(C(=O)/C=C\\c1ccccc1)C1OC(=O)c2ccccc21 (stereo not given)"
measured_value = "> 100 µM"

[[record]]
compound = "COc1ccc2c3c([nH]c2c1)-c1nc2ccccc2c(=O)n1CC3"
measured_value = "> 25 µM"


Here are 5 compounds. What values of TGI were reported for them?
1. CCOC(=O)/C(C1=N[C@H](C(=O)OCC)CS1)=C(\O)c1ccccc1
2. CCCN(CCCCC(NC(C)=O)C(=O)NCc1ccccc1)C(=O)NCCCl (stereo not given)
3. COC(=O)c1c(C)cccc1C1CN=NC12Cc1cccc(C)c1C2=O (stereo not given)
4. CC(C)N(C(=O)C12C3C4C5(C#N)C3C1(I)C5C42I)C(C)C (stereo not given)
5. N#C[C@H]1C(=O)C(c2nc3ccccc3[nH]2)S[C@H]1c1ccccc1 (stereo not given in full)

OUT:
1. > 100 µM
2. > 100 µM
3. > 100 µM
4. > 58.9 µM
5. > 100 µM

* * *

test system: SN12C renal; assay: NCI tumour cell line growth inhibition, 48 h
MEASUREMENT LABEL: TGI

Required: TGI, one value per compound below.
1. COc1c(-c2ccc(F)cc2)oc2cc(O)cc(O)c2c1=O
2. Oc1ccc(O)c(Sc2nnc(CCCCCCCCc3nnc(Sc4cc(O)ccc4O)o3)o2)c1
3. N#CC(C(=O)/C(=N/N)C(C#N)c1ccc(Cl)cc1)c1ccc(Cl)cc1 (stereo not given)

OUT:
1. 83.6 µM
2. > 100 µM
3. > 100 µM

Parameters: items (list). Returns: TGI for each item.
1. NC(=O)CC[C@H]1C(=O)N=C(N)N1C(=O)OCc1ccccc1
2. CCCN(CCCCC(NC(C)=O)C(=O)NCc1ccccc1)C(=O)NCCCl (stereo not given)
3. CC(C)(C)C(=O)O[C@H]1C=C[C@@H](O)[C@@H]2[C@H]1[C@@H]1C=C[C@H]2C1
4. Cc1ccc(NC(=O)CC2C(=O)Nc3ccccc3S2=O)cc1C (stereo not given)

OUT:
1. > 100 µM
2. > 100 µM
3. 41 µM
4. > 100 µM

Need TGI for each of these compounds.
1. CC1OC(n2ncc(=O)[nH]c2=O)C=CC1=O (stereo not given)
2. O=C1c2ccccc2C2(c3ccc(Cl)cc3)N[C@@H]3CCCC[C@@H]3N12 (stereo not given in full)

OUT:
> 100 µM
> 100 µM

* * *

tested on: HOP-62 NSCLC; experiment: NCI tumour cell line growth inhibition, 48 h; in the data active = GI50 below about 0.43 µM; inactive = the rest
Assign a class; possible classes are TRUE = active, FALSE = inactive

[[record]]
compound = "CCN(Cc1cccc(OC)c1)c1ccc(CO)c(Cl)c1"
study_target = "HOP-62 NSCLC"
label_class = "FALSE"

[[record]]
compound = "CCOP(=O)(OCC)C(NC(c1ccccc1)c1ccccc1)c1ccccc1 (stereo not given)"
study_target = "HOP-62 NSCLC"
label_class = "FALSE"

[[record]]
compound = "COc1ccc(-c2cc(-c3ccc(OC)c(OC)c3)nc(SCCCC(=O)NO)n2)cc1"
study_target = "HOP-62 NSCLC"
label_class = "FALSE"


IN: Which result was noted for this compound in the test: N[C@@H](Cc1c[nH]c2ccccc12)C(=O)NC1CCN(C(=O)c2c[nH]c3ccccc23)CC1
OUT: FALSE

IN: Any idea what this test logged for COc1ccc(-n2c(SCc3cc(OC)c(OC)c(OC)c3)nc3ccc(C)cc3c2=O)c(OC)c1 ?
OUT: FALSE

IN: Dear all, I need the recorded test outcome for Cc1cn(C2CC(F)C(CO)O2)c(=O)[nH]c1=O (stereo not given) , thank you.
OUT: FALSE

IN: Which outcome was assigned to O=Cc1c(-c2cc(O)ccc2O)nc2sccn12 in this test?
OUT: FALSE

IN: How did this test come out for CN(C)CCCn1c2c(c3cnccc3c1=O)C(=O)c1ccccc1-2 ?
OUT: TRUE

IN: Lab log entry: N#Cc1c(C(=O)c2ccccc2)cnn1-c1ccccc1 — outcome as called in the assay?
OUT: FALSE

IN: Test call for this compound, please: CC1=C([Se]CC(OC(=O)CC[Se]c2ccccc2)C(=O)NCCCCCC(=O)OCc2ccccc2)C(=O)c2ccccc2C1=O (stereo not given)
OUT: FALSE
